This collection of values is drawn from PubChem BioAssay (NCI).

- Test system: HOP-62 NSCLC
- protocol-description: NCI-60 one-dose screen, 48 h (100 = growth as untreated, 0 = no growth, -100 = all killed)
- test-parameters: 10 µM unless noted
About 83,000 compounds went through this panel and 20% of them were active in at least one assay; those are over-represented in the sample as a whole.
Decision: growth beneath 90% gives 1 (yes); growth meeting or exceeding 90% gives 0 (no).

molecule: COc1cccc(-c2nc(-c3ccc(NS(=O)(=O)c4ccccc4)cc3)[nH]c2-c2ccnc(Br)c2)c1
class-assignment: 1 (yes)

Shifting focus to the molecule that follows.
// query Could you please tell me whether growth recorded for C#C[C@]1(O)CC[C@H]2[C@@H]3CC=C4c5sc(Nc6ccccc6)nc5CC[C@]4(C)[C@H]3CC[C@@]21C is less than 90%?
// result 1 (yes)
